Entry source: paper PMC11049809

- TARGET_OF_ASSAY: T1, MerR (Tn501) (Pseudomonas aeruginosa (Tn501), UniProt P0A183 1-144)
- T1 sequence: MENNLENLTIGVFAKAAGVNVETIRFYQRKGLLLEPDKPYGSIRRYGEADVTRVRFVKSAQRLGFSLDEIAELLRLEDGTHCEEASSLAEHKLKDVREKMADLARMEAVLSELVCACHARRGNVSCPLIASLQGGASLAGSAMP
- TEST_DETAILS: EMSA; 0-600 nM MerR, 30 nM DNA, no Hg stated; 10 mM Tris-HCl pH 8.0, 50 mM KCl, 5 mM MgCl2, 10% glycerol, 25 C 10 min; 8% native PAGE, 80 V 45 min
- CONDITION_LABEL: protein: recombinant; chain copies: 2; blunt
ENDPOINT: binding result

Consider the reported binding result for these binders:
Pmer-M7 (dsDNA) DNA 1: TTGACTCCGTACATGAGACGGAAGTAAGGT DNA 2: ACCTTACTTCCGTCTCATGTACGGAGTCAA :: no binding
Pmer-M14 (dsDNA) DNA 1: TTGACTCCGTACATGAGTACGGTAAGGT DNA 2: ACCTTACCGTACTCATGTACGGAGTCAA :: binds
Pmer-M12 (dsDNA) DNA 1: TTGACTCCGTACATGAGTACGGGTAAGGT DNA 2: ACCTTACCCGTACTCATGTACGGAGTCAA :: binds
Pmer-M4 (dsDNA) DNA 1: TTGACTCCGTACTGAGTACGGAAGTAAGGT DNA 2: ACCTTACTTCCGTACTCAGTACGGAGTCAA :: no binding
Pmer-M11 (dsDNA) DNA 1: TTGACTCCGTACATGAGTACGGAATAAGGT DNA 2: ACCTTATTCCGTACTCATGTACGGAGTCAA :: binds
Pmer-M10 (dsDNA) DNA 1: TTGACTCCGTACATGAGTACGGAGTAAGGT DNA 2: ACCTTACTCCGTACTCATGTACGGAGTCAA :: binds

# context switch: different binder, same binding result
Quickly give me recorded binding result for Pmer-M1 (dsDNA) DNA 1: TTGACTCGTACATGAGTACGGAAGTAAGGT DNA 2: ACCTTACTTCCGTACTCATGTACGAGTCAA
binds
